The reported measurements were obtained from PubChem BioAssay AID1159580.

# experiment-notes: chemical genetic growth profiling, strain panel (AID 1159580);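 further: tested at 20 µM; growth read once vehicle control cultures reached saturation at 30 °C; lower values mean less growth of the strain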
# conditions: S. cerevisiae deletion strains, growth OD, locus YDR159W, strain sac3
Hit rate of the full screen: of about 5,500 compounds, about 2,000 (36%) were called active. Not shown: some 18% with an inconclusive outcome. No stated cut-off is given here; in the data, active means normalized growth mostly below about 0.91 (no sharp cut-off); inconclusive means no clear call, values can overlap the other calls; inactive means mostly above about 0.92. Some of the results follow.
Your answer must be one of the following: Yes (active), No (inactive)

See these solved cases before continuing.
molecule | discrete-label
COc1c(N2CCNC(C)C2)c(F)cc2c(=O)c(C(=O)O)cn(C3CC3)c12 (centres undefined) | No
CCOC(=O)n1ccn(C)c1=S | No
CCN1CCCC(OC(=O)C(c2ccccc2)c2ccccc2)C1 (centres undefined) | No
O=C1C(Cl)=C(Cl)C(=O)C(Cl)=C1Cl | No
C=CC[C@]1(O)CCC2C3CCC4=CC(=O)CCC4=C3C=C[C@@]21C (some centres undefined) | No
C[C@]12CCC(=O)C=C1C=CC1C2CC[C@@]2(C)C1CC[C@@]21CCC(=O)O1 (some centres undefined) | No
CCN(CC)Cc1ccc(Nc2ccnc3cc(Cl)ccc23)cc1O | No
COC(=O)c1cc(=O)c(O)c2c(O)c(O)ccc2c1 | No

Which outcome was entered for the molecule Oc1ccc2c(c1)O[C@H](c1ccc(O)c(O)c1)[C@@H](O)C2 in this test?
No

Which outcome was entered for the molecule COc1ccc(C(=O)O)cc1OC in this test?
No

Which outcome was entered for the molecule CC1CCc2cc(F)cc3c(=O)c(C(=O)O)cn1c23 (centres undefined) in this test?
No
